Here the recorded pIC50 is given for each entry.
- Test system: MDA-MB-231
- method_summary: Anticancer activity against human MDA-MB-231 cells assessed as inhibition of cell proliferation measured after 72 hrs by MTT assay
- Format: functional, cell-based
- study_conditions: MDA-MB-231, 72 h
// pIC50 here means minus log10 of the molar concentration (mol/L)

In the examples that follow, each entry is paired with its recorded pIC50.
smiles_str | target_or_system | experimental_value
NCCCNc1nc2ccccc2c2c(=O)c3cc(Cl)ccc3sc12 | MDA-MB-231 | 5.47
Cc1ccc2sc3c(NCCCN)nc4ccccc4c3c(=O)c2c1 | MDA-MB-231 | 5.43

Incoming: Test system MDA-MB-231; read-out pIC50; what value for NCCNc1nc2ccccc2c2c(=O)c3cc(F)cc(Cl)c3sc12 ?
Outgoing: 5.94

###

Here the recorded cytotoxicity at 72 h, 10 µM is given for each entry.
- method_summary: Cytotoxicity against human MDA-MB-231 cells assessed as reduction in cell viability at 10 uM after 72 hrs by MTT assay relative to control
- Assay type: cell-based
- study_conditions: read-out: INH

smiles_str | cytotoxicity at 72 h, 10 µM
NCCNc1nc2ccccc2c2c(=O)c3cc(F)cc(Cl)c3sc12 | > 95%
O=C(Nc1nc2ccccc2c2c(=O)c3cc(Cl)ccc3sc12)c1ccccn1 | < 20%
CCCNc1nc2ccccc2c2c(=O)c3c(Cl)cccc3sc12 | < 20%
NCCCNc1nc2ccccc2c2c(=O)c3cccc(Cl)c3sc12 | > 95%
CCCNc1nc2ccccc2c2c(=O)c3cccc(Cl)c3sc12 | < 20%

Incoming: Would you mind telling me what cytotoxicity at 72 h, 10 µM value was observed for CCCNc1nc2ccccc2c2c(=O)c3ccc(Cl)cc3sc12 ?
Outgoing: < 20%

Incoming: Would you mind telling me what cytotoxicity at 72 h, 10 µM value was observed for NCCCNc1nc2ccccc2c2c(=O)c3cc(Cl)ccc3sc12 ?
Outgoing: > 95%

Incoming: Would you mind telling me what cytotoxicity at 72 h, 10 µM value was observed for O=c1c2cccc(F)c2sc2c(NCc3ccccc3)nc3ccccc3c12 ?
Outgoing: < 20%

Incoming: Would you mind telling me what cytotoxicity at 72 h, 10 µM value was observed for CCCNc1nc2ccccc2c2c(=O)c3cc(OC)ccc3sc12 ?
Outgoing: < 20%

Incoming: Would you mind telling me what cytotoxicity at 72 h, 10 µM value was observed for COc1ccc2sc3c(NCCCN)nc4ccccc4c3c(=O)c2c1 ?
Outgoing: > 95%

Incoming: Would you mind telling me what cytotoxicity at 72 h, 10 µM value was observed for CCNc1nc2ccccc2c2c(=O)c3cccc(F)c3sc12 ?
Outgoing: < 20%

Incoming: Would you mind telling me what cytotoxicity at 72 h, 10 µM value was observed for Cc1ccc2sc3c(NCCCN)nc4ccccc4c3c(=O)c2c1 ?
Outgoing: > 95%

Incoming: Would you mind telling me what cytotoxicity at 72 h, 10 µM value was observed for NCCCNc1nc2ccccc2c2c(=O)c3cc(F)ccc3sc12 ?
Outgoing: > 95%
